target_under_test: c-Src SH2
test_method_notes: SH2 binding enrichment of the phosphorylated peptide, bacterial display (enrichment ratio); higher = better substrate or ligand; peptides without Tyr show the background
The label depends only on SH2 binding enrichment: true if it is at least 1, false if it is smaller.

Reference set (8 entries):
# residue_sequence, category
rows = [
    ("TFRPPYYHRDC [HGD_Y333_N337D]", "true"),
    ("DLDTEYGSGFP [RNASEH2A_Y206_D205E_YF]", "false"),
    ("FTGVEYSSCDT [EPHA3_Y937]", "true"),
    ("LTDLRYKVSGL", "false"),
    ("HVKHNYECLVY [XRCC5_Y416_I412V]", "true"),
    ("KSPDSYQKILF [ATM_Y1415_L1420F]", "true"),
    ("NDLMEYPKQHG [ASS1_Y163_A164P]", "false"),
    ("AFLQTYAHEVS [PCDHGA5_Y753_S754A]", "false"),
]

*Q* Given the entry DRLASYQDKVR [KRT12_Y139_L140Q] , answer whether its SH2 binding enrichment meets or surpasses 1.
*A* false

*Q* Item FSCLPYGRLAF [SLC52A2_Y305_YF] with SH2 binding enrichment of 1 or above?
*A* false

*Q* Can GKTFTYRSVFF [ZNF80_Y200] be said to have SH2 binding enrichment at or above 1?
*A* false

*Q* Is SH2 binding enrichment for MMVGAYSSLEG [ECPAS_Y470_T472S] at or above 1?
*A* true

*Q* Tell me whether SH2 binding enrichment is at least 1 here: LQLLGHRPVFS [CHST6_Y358_Y358H_YF]
*A* false

---

target_under_test: Fyn (UniProt P06241)
Sequence (P06241 whole entry, looked up): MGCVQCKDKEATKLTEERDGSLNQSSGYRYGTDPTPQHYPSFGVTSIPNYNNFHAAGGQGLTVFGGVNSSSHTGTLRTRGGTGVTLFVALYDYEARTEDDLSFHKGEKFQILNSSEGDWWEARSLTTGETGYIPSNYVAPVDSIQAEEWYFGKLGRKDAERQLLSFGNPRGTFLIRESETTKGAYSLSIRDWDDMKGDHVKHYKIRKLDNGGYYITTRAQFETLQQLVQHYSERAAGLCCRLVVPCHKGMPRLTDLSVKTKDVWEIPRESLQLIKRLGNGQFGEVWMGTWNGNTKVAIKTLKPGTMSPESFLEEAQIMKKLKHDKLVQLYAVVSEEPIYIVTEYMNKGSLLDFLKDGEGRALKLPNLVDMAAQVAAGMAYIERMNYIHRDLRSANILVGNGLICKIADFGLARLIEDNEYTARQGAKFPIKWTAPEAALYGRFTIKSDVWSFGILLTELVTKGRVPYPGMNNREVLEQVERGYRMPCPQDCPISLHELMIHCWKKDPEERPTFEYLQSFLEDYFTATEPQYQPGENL
test_method_notes: phosphorylation enrichment, bacterial display (enrichment ratio); higher = better substrate or ligand; peptides without Tyr show the background
observable: phosphorylation enrichment
// no unit string in output, number only

Reference set, count: 8
# residue_sequence, target_under_test, observed_result
records = [
    ("VVQGIYGFHHF [UFSP2_Y285_YF]", "Fyn (UniProt P06241)", 10.1),
    ("ETWHNYHKFDS [MATR3_Y243_S240W]", "Fyn (UniProt P06241)", 0.468),
    ("ISGGGYRARPA [FGB_Y71]", "Fyn (UniProt P06241)", 0.416),
    ("RKETFYTLSCR [GUCY2C_Y681]", "Fyn (UniProt P06241)", 2.44),
    ("SHPSSYTTHPQ [NIPBL_Y195]", "Fyn (UniProt P06241)", 0.441),
    ("AEEEIYGIFGA [SRCtide_2014]", "Fyn (UniProt P06241)", 5.63),
    ("RDWSLYFKIIE [KRT18_Y129_H128L]", "Fyn (UniProt P06241)", 0.447),
    ("HVEAVYIDIAD [PITPNA_Y140]", "Fyn (UniProt P06241)", 1.14),
]

*Q* Lab note: Fyn (UniProt P06241) assay, enter phosphorylation enrichment for LERYIYNREEY [HLA-DPB1_Y59_F64Y] here
*A* 1.77

*Q* Fill in phosphorylation enrichment for IPGVEYLVSII [TNC_Y1775] tested with Fyn (UniProt P06241).
*A* 0.432

*Q* Provide the reported phosphorylation enrichment (system: Fyn (UniProt P06241)) for GLAKEYIDPET [CSNK1G2_Y195]
*A* 0.494

---

target_under_test: Grb2 SH2 (UniProt P62993)
Sequence (P62993 whole entry, looked up): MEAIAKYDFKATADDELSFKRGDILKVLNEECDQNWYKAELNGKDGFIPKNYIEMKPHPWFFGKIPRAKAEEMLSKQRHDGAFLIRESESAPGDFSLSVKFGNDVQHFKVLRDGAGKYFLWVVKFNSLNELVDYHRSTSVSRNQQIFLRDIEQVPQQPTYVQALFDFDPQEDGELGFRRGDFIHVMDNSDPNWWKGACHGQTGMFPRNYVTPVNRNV
test_method_notes: SH2 binding enrichment of the phosphorylated peptide, bacterial display (enrichment ratio); higher = better substrate or ligand; peptides without Tyr show the background
observable: SH2 binding enrichment
Please give the numeric answer without any surrounding text.

# residue_sequence, SH2 binding enrichment
rows = [
    ("CEHRGYLFLAI [TEK_Y897_YF]", 1.49),
    ("RPSGRYPVARR [SHANK3_Y1569]", 0.541),
    ("YGLPRYRWLTH [TSPAN12_Y143]", 0.797),
]

Now turn to the next sequence.
*Q* Check the records and state SH2 binding enrichment for GKAFIYASHIV [ZNF573_Y229]
*A* 0.76

---

System: c-Src
test_method_notes: phosphorylation enrichment, bacterial display (enrichment ratio); higher = better substrate or ligand; peptides without Tyr show the background
Binary call on phosphorylation enrichment: 1.0 from 0.5 upward, 0.0 beneath that.

# residue_sequence, target_under_test, category
data = [
    ("PLQKTYNFNML [SLC4A1_Y553_V557M_YF]", "c-Src", 1.0),
    ("ETWHNYHKFDS [MATR3_Y243_S240W]", "c-Src", 0.0),
    ("HVEAVYIDIAD [PITPNA_Y140]", "c-Src", 1.0),
    ("HIPFRYPKEFQ [IDS_Y234]", "c-Src", 1.0),
]

*Q* Please check the record ERLWDCGMSSS [F8_Y1728_Y1728C] and state if its phosphorylation enrichment is at or above 0.5.
*A* 0.0

---

target_under_test: FGFR1 (UniProt P11362)
Sequence (P11362 whole entry, looked up): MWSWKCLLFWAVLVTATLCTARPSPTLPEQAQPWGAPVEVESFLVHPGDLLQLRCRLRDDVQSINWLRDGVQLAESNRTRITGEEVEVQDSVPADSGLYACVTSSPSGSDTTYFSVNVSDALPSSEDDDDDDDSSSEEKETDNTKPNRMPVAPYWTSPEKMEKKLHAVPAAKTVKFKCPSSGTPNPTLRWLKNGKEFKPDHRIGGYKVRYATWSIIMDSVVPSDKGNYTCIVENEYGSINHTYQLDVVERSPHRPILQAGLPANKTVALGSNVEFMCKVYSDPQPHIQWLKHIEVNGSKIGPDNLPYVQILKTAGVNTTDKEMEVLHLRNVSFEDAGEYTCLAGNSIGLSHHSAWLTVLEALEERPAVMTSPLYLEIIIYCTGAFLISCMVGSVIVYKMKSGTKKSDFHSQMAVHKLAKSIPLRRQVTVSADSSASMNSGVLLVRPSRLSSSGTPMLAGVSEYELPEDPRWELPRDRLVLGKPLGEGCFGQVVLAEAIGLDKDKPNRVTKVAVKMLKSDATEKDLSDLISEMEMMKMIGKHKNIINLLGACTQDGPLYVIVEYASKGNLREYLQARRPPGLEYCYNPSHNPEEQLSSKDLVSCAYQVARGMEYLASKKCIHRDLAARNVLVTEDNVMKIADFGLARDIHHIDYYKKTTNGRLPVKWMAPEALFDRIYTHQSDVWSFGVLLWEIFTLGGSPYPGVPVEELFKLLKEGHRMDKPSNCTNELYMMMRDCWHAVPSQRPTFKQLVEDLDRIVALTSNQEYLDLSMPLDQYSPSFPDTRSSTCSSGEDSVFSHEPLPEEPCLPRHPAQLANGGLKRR
test_method_notes: phosphorylation enrichment, bacterial display (enrichment ratio); higher = better substrate or ligand; peptides without Tyr show the background
observable: phosphorylation enrichment

Answered cases to consult:
# residue_sequence, phosphorylation enrichment
records = [
    ("AGTILYHAHLD [ASS1_Y291]", 0.535),
    ("VRTGIYHGGKP [PIK3CA_Y361_E365K]", 0.456),
    ("FRVAGYETQGG [TIA1_Y383_YF]", 0.449),
    ("FEGAIYRKDVG [GART_Y417]", 0.347),
    ("KVGPGYLGSRG [RET_Y826_G830R]", 0.318),
    ("QQLVAYYSKHT [SRC_Y232_A237T]", 0.818),
    ("MHDKEYFSVHN [MET_Y1234_Y1230H_YF]", 1.4),
    ("YQASYYRRGDR [LTK_Y677_R673Q]", 0.411),
]

*Q* Find phosphorylation enrichment for DRLASYQDKVR [KRT12_Y139_L140Q] on FGFR1 (UniProt P11362) and write it down.
*A* 0.394

*Q* Identify measured phosphorylation enrichment obtained with FGFR1 (UniProt P11362) for PVGVLYKVKVF [PTS_Y128_YF] .
*A* 0.842

*Q* Determine reported phosphorylation enrichment for FSCLPYGRLAY [SLC52A2_Y305] ; test system: FGFR1 (UniProt P11362).
*A* 0.463

*Q* GET phosphorylation enrichment | system: FGFR1 (UniProt P11362) | item: QNRELYSEGLG [CNKSR1_Y665]
*A* 0.578

*Q* Give FGFR1 (UniProt P11362) phosphorylation enrichment for the following sequence: DSDTDYGSGFP [RNASEH2A_Y206_L202S_YF]
*A* 0.418

*Q* Identify measured phosphorylation enrichment obtained with FGFR1 (UniProt P11362) for LRSELYFLIAR [PHIP_Y16] .
*A* 3.06

*Q* Enter recorded phosphorylation enrichment with FGFR1 (UniProt P11362) for PQIVKYRPDCI [LDHB_Y128_S129R] here.
*A* 0.302

*Q* Please respond with reported phosphorylation enrichment (system FGFR1 (UniProt P11362)) for IKELTYQMEED [MYH7_Y1852_T1854M] .
*A* 0.591

---

target_under_test: Fes (UniProt P07332)
Sequence (P07332 whole entry, looked up): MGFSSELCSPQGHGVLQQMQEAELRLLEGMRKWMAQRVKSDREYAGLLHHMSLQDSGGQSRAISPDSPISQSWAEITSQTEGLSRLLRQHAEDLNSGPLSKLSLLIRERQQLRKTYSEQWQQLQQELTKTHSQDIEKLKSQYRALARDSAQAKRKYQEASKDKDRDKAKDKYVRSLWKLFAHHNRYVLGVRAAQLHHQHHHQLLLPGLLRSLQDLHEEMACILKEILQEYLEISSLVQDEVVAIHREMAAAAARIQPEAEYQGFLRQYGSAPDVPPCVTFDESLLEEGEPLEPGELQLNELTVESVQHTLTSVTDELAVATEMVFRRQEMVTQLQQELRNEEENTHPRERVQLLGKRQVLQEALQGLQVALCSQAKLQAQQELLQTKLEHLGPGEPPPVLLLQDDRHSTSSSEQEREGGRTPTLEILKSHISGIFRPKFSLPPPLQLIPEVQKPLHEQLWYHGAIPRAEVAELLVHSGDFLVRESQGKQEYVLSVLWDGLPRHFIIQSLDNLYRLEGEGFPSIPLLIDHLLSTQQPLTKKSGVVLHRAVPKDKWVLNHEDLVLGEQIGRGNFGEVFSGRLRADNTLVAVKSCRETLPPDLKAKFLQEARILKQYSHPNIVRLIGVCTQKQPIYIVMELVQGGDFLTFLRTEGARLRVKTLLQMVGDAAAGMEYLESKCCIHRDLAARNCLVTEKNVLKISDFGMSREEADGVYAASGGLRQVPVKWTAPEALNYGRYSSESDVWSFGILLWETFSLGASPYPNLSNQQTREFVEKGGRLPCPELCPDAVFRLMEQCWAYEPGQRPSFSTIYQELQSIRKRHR
test_method_notes: phosphorylation enrichment, bacterial display (enrichment ratio); higher = better substrate or ligand; peptides without Tyr show the background
observable: phosphorylation enrichment
Answer with a bare number; do not write a unit.

# residue_sequence, phosphorylation enrichment
rows = [
    ("KLMTEYKRRKQ [ARFGEF3_Y2029_K2031R]", 0.572),
    ("KTNVSYCGALD [CACNB4_Y103]", 0.834),
    ("DALDNYVIRGV [PCCA_Y473]", 0.842),
]

*Q* Write down measured phosphorylation enrichment (Fes (UniProt P07332)) for this sequence. KSPDSYQKILF [ATM_Y1415_L1420F]
*A* 0.517

*Q* Tell me its phosphorylation enrichment on Fes (UniProt P07332): CVAARYMDMKG [WFIKKN2_Y93_V96M]
*A* 0.984

*Q* Provide measured phosphorylation enrichment on Fes (UniProt P07332) for RSSGPYGGGGQ [HNRNPA1_Y341] please.
*A* 0.686

*Q* Write down measured phosphorylation enrichment (Fes (UniProt P07332)) for this sequence. IVRSLYKDLED [VHL_Y185_E186K]
*A* 1.19

*Q* Provide Fes (UniProt P07332) phosphorylation enrichment reading for DPYHVYIKNHV [KCNE3_Y95_R99H] .
*A* 0.826

*Q* Give phosphorylation enrichment for this entry on Fes (UniProt P07332): LLREWYVQDPF [SIX3_Y225_L226V_YF]
*A* 0.977

*Q* Enter measured phosphorylation enrichment, system Fes (UniProt P07332), for the sequence shown: YLGRDYLETLM [DUS3L_Y610]
*A* 1.03

*Q* Look up and report phosphorylation enrichment, with Fes (UniProt P07332) as system, for SFCFRYCCAAR [SUMF1_Y344_R345C_YF]
*A* 1.23

*Q* Retrieve phosphorylation enrichment on Fes (UniProt P07332); query QNTGGYYDLYG [PTPN11_Y62_D61G]
*A* 1.64

*Q* Lab note: Fes (UniProt P07332) assay, enter phosphorylation enrichment for LISVSYDDWDF [GRIN2A_Y281_YF] here
*A* 2.44

*Q* Fill in: phosphorylation enrichment on Fes (UniProt P07332), entry CLAKMYYSAVE [CP_Y539_D544E]
*A* 1.19

*Q* Look up and report phosphorylation enrichment, with Fes (UniProt P07332) as system, for KVPCHYDDPGK [FOXG1_Y246_R244C]
*A* 0.943

*Q* Consider the sequence TVLGEYASPKG [CYP24A1_Y407_L409S] tested on Fes (UniProt P07332); state its phosphorylation enrichment.
*A* 0.619

*Q* Please indicate recorded phosphorylation enrichment of NFDRVYIFHLR [MYOF_Y1137_YF] measured with Fes (UniProt P07332).
*A* 1.19

*Q* Determine reported phosphorylation enrichment for GYSRHCEDGYP [CTNND1_Y217_Y217C] ; test system: Fes (UniProt P07332).
*A* 0.972

*Q* Provide the reported phosphorylation enrichment (system: Fes (UniProt P07332)) for TSSAGYRAAEG [COL6A3_Y543]
*A* 0.629

*Q* Report phosphorylation enrichment from Fes (UniProt P07332) testing of FAKTQYPDIYA [CRX_Y63_V66I]
*A* 0.693

*Q* Please look at YHIDHYLGKEM [G6PD_Y202_R198H] and tell me its recorded phosphorylation enrichment on Fes (UniProt P07332).
*A* 0.674

*Q* State recorded phosphorylation enrichment with Fes (UniProt P07332), entry QAFSWYQHQRA [NDST1_Y714_R709Q_YF] , no comment.
*A* 1.64

*Q* Print Fes (UniProt P07332) phosphorylation enrichment for GVSFIYTIDGS [DCX_Y105_R102S_YF] .
*A* 1.31
